assay: Plasma pharmacokinetics in patients; assay type: in vivo, human; settings: human, plasma, oral, time to Tmax, single doses, fasting, cycle 1 day 1
MEASURED_METRIC: Tmax

// CCn1c(=O)c(-c2cc(NC(=O)Nc3ccccc3)c(F)cc2Br)cc2cnc(NC)cc21 [Ripretinib] : Tmax value = 2 to 10 h
